// provenance: PubChem BioAssay AID1963968

Here, each record is paired with measured viability, T/C data.
- Test system: 945468-187-T-J3-PDC spheroids with HUVEC/MSC, viability
- METHOD_DESCRIPTION: Anticancer human tumor 945468-187-T-J3-PDC patient-derived rectal carcinoma cell line growth inhibition [PI3K]
- MEASUREMENT_PARAMETERS: second compound 0.01 µM; first compound 0.1 µM; stronger effect = lower value
Enter your answer as a number in %; do not include the unit.

May I ask what viability, T/C has been recorded for CNC(=O)c1ccc(N2C(=S)N(c3ccc(C#N)c(C(F)(F)F)c3)C(=O)C2(C)C)cc1F + CC(Nc1ccc2c(c1)OCCn1cc(N3C(=O)OCC3C(F)F)nc1-2)C(N)=O ? 124

May I ask what viability, T/C has been recorded for Cn1ncnc1[C@H]1c2n[nH]c(=O)c3cc(F)cc(c23)N[C@@H]1c1ccc(F)cc1 + COc1c(OCCCN2CCOCC2)ccc2c3n(c(=NC(=O)c4cnc(N)nc4)nc12)CCN3 ? 95.4

May I ask what viability, T/C has been recorded for C=CC(=O)N1CCN(c2nc(=O)n(-c3c(C)ccnc3C(C)C)c3nc(-c4c(O)cccc4F)c(F)cc23)C(C)C1 (stereo unspecified) + COc1c(OCCCN2CCOCC2)ccc2c3n(c(=NC(=O)c4cnc(N)nc4)nc12)CCN3 ? 90

May I ask what viability, T/C has been recorded for C[C@@H](NC(=O)c1ncnc(N)c1Cl)c1ncc(C(=O)Nc2cc(C(F)(F)F)c(Cl)cn2)s1 + CC(Nc1ccc2c(c1)OCCn1cc(N3C(=O)OCC3C(F)F)nc1-2)C(N)=O ? 110

May I ask what viability, T/C has been recorded for CC1(C)CCC(CN2CCN(c3ccc(C(=O)NS(=O)(=O)c4ccc(NCC5CCOCC5)c([N+](=O)[O-])c4)c(Oc4cnc5[nH]ccc5c4)c3)CC2)=C(c2ccc(Cl)cc2)C1 + COc1c(OCCCN2CCOCC2)ccc2c3n(c(=NC(=O)c4cnc(N)nc4)nc12)CCN3 ? 90.8

May I ask what viability, T/C has been recorded for C#Cc1c(F)ccc2cc(O)cc(-c3ncc4c(N5CC6CCC(C5)N6)nc(OCC56CCCN5CC(F)C6)nc4c3F)c12 (stereo unspecified) + CC(Nc1ccc2c(c1)OCCn1cc(N3C(=O)OCC3C(F)F)nc1-2)C(N)=O ? 100

May I ask what viability, T/C has been recorded for Cn1nccc1Nc1nccc(-c2ccn(C(CO)c3ccc(Cl)c(F)c3)c(=O)c2)n1 (stereo unspecified) + COc1c(OCCCN2CCOCC2)ccc2c3n(c(=NC(=O)c4cnc(N)nc4)nc12)CCN3 ? 87.7

May I ask what viability, T/C has been recorded for CC(C)NCC(C(=O)N1CCN(c2ncnc3c2C(C)CC3O)CC1)c1ccc(Cl)cc1 (stereo unspecified) + CC(Nc1ccc2c(c1)OCCn1cc(N3C(=O)OCC3C(F)F)nc1-2)C(N)=O ? 103

* * *

- Test system: 945468-187-T-J3-PDC spheroids with HUVEC/MSC, viability
- METHOD_DESCRIPTION: Anticancer human tumor 945468-187-T-J3-PDC cell line growth inhibition [PI3K];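 further: spheroids exposed to agents for 7 days before viability read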;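 on viability, T/C: 100% = DMSO vehicle control viability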
- MEASUREMENT_PARAMETERS: second compound 1 µM; first compound 10 µM; stronger effect = lower value
QUANTITY_NAME: viability, T/C (%)
Enter your answer as a number in %; do not include the unit.

Past entries and their recorded results:
{"COMPOUND": "CC(C)NCC(C(=O)N1CCN(c2ncnc3c2C(C)CC3O)CC1)c1ccc(Cl)cc1 (stereo not drawn) + CC(Nc1ncnc2nc[nH]c12)c1cc2cccc(Cl)c2c(=O)n1-c1ccccc1", "viability, T/C / %": 48.1}
{"COMPOUND": "Cn1ncc(Cl)c1-c1cc(C(=O)NC(CN)Cc2cccc(F)c2)sc1Cl (stereo not drawn) + CC(Nc1ccc2c(c1)OCCn1cc(N3C(=O)OCC3C(F)F)nc1-2)C(N)=O", "viability, T/C / %": 19.6}

// next entry
Under 945468-187-T-J3-PDC spheroids with HUVEC/MSC, viability: viability, T/C value of C#Cc1c(F)ccc2cc(O)cc(-c3ncc4c(N5CC6CCC(C5)N6)nc(OCC56CCCN5CC(F)C6)nc4c3F)c12 (stereo not drawn) + Cc1nc(NC(=O)N2CCCC2C(N)=O)sc1-c1ccnc(C(C)(C)C(F)(F)F)c1 ? 106

* * *

- Tested on: 945468-187-T-J3-PDC spheroids with HUVEC/MSC, viability
- METHOD_DESCRIPTION: Anticancer human tumor 945468-187-T-J3-PDC cell line growth inhibition [PI3K];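 further: spheroids exposed to agents for 7 days before viability read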
- MEASUREMENT_PARAMETERS: curve of first compound; second compound 1 µM
QUANTITY_NAME: IC50

Past entries and their recorded results:
{"COMPOUND": "Cn1cnc2c(F)c(Nc3ccc(Br)cc3Cl)c(C(=O)NOCCO)cc21 + COc1c(OCCCN2CCOCC2)ccc2c3n(c(=NC(=O)c4cnc(N)nc4)nc12)CCN3", "IC50": "< 0.00949 µM"}
{"COMPOUND": "C[C@@H](NC(=O)c1ncnc(N)c1Cl)c1ncc(C(=O)Nc2cc(C(F)(F)F)c(Cl)cn2)s1 + Cc1nc(NC(=O)N2CCCC2C(N)=O)sc1-c1ccnc(C(C)(C)C(F)(F)F)c1", "IC50": "> 10 µM"}

// next entry
May I ask what IC50 has been recorded for CNC(=O)c1ccc(N2C(=S)N(c3ccc(C#N)c(C(F)(F)F)c3)C(=O)C2(C)C)cc1F + CC(Nc1ccc2c(c1)OCCn1cc(N3C(=O)OCC3C(F)F)nc1-2)C(N)=O ? > 10 µM

* * *

Here, each record is paired with measured viability, T/C data.
- Tested on: 945468-187-T-J3-PDC spheroids with HUVEC/MSC, viability
- METHOD_DESCRIPTION: Anticancer human tumor 945468-187-T-J3-PDC cell line growth inhibition [PI3K];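 further: spheroids exposed to agents for 7 days before viability read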;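 on viability, T/C: 100% = DMSO vehicle control viability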
- MEASUREMENT_PARAMETERS: second compound 3.16 µM; first compound 0.0316 µM; stronger effect = lower value
- Description: Combinatorial screen of targeted agents with the PI3K inhibitors inavolisib, alpelisib, duvelisib, and copanlisib in multi-cell type tumor spheroids A high-throughput screen of multi-cell type tumor spheroids was designed to identify active combinations of targeted small molecules and PI3K pathway inhibitors. […] Compounds. […] If the clinical Cmax for an agent had not been determined, the highest concentration tested was 10 microM. […]
Enter your answer as a number in %; do not include the unit.

Past entries and their recorded results:
{"COMPOUND": "CC1(C)CCC(Nc2ncc(C(F)(F)F)c(-c3c[nH]c4c(P(C)(C)=O)c(C#N)ccc34)n2)CN1 (stereo not given) + Cc1nc(NC(=O)N2CCCC2C(N)=O)sc1-c1ccnc(C(C)(C)C(F)(F)F)c1", "viability, T/C / %": 78.5}
{"COMPOUND": "CC1(C)CCC(CN2CCN(c3ccc(C(=O)NS(=O)(=O)c4ccc(NCC5CCOCC5)c([N+](=O)[O-])c4)c(Oc4cnc5[nH]ccc5c4)c3)CC2)=C(c2ccc(Cl)cc2)C1 + CC(Nc1ncnc2nc[nH]c12)c1cc2cccc(Cl)c2c(=O)n1-c1ccccc1", "viability, T/C / %": 100}
{"COMPOUND": "CC1(C)CCC(CN2CCN(c3ccc(C(=O)NS(=O)(=O)c4ccc(NCC5CCOCC5)c([N+](=O)[O-])c4)c(Oc4cnc5[nH]ccc5c4)c3)CC2)=C(c2ccc(Cl)cc2)C1 + Cc1nc(NC(=O)N2CCCC2C(N)=O)sc1-c1ccnc(C(C)(C)C(F)(F)F)c1", "viability, T/C / %": 116}
{"COMPOUND": "Cn1nccc1Nc1nccc(-c2ccn(C(CO)c3ccc(Cl)c(F)c3)c(=O)c2)n1 (stereo not given) + CC(Nc1ncnc2nc[nH]c12)c1cc2cccc(Cl)c2c(=O)n1-c1ccccc1", "viability, T/C / %": 108}
{"COMPOUND": "C#Cc1c(F)ccc2cc(O)cc(-c3ncc4c(N5CC6CCC(C5)N6)nc(OCC56CCCN5CC(F)C6)nc4c3F)c12 (stereo not given) + CC(Nc1ncnc2nc[nH]c12)c1cc2cccc(Cl)c2c(=O)n1-c1ccccc1", "viability, T/C / %": 102}
{"COMPOUND": "CC(Cn1ccc(-c2ccc(C#N)c(Cl)c2)n1)NC(=O)c1cc(C(C)O)[nH]n1 (stereo not given) + CC(Nc1ncnc2nc[nH]c12)c1cc2cccc(Cl)c2c(=O)n1-c1ccccc1", "viability, T/C / %": 94.8}

May I ask what viability, T/C has been recorded for CCCS(=O)(=O)Nc1ccc(F)c(C(=O)c2c[nH]c3ncc(-c4ccc(Cl)cc4)cc23)c1F + Cc1nc(NC(=O)N2CCCC2C(N)=O)sc1-c1ccnc(C(C)(C)C(F)(F)F)c1 ? 106

May I ask what viability, T/C has been recorded for CC(C)NCC(C(=O)N1CCN(c2ncnc3c2C(C)CC3O)CC1)c1ccc(Cl)cc1 (stereo not given) + CC(Nc1ncnc2nc[nH]c12)c1cc2cccc(Cl)c2c(=O)n1-c1ccccc1 ? 98.3

May I ask what viability, T/C has been recorded for CNC(=O)c1ccc(N2C(=S)N(c3ccc(C#N)c(C(F)(F)F)c3)C(=O)C2(C)C)cc1F + CC(Nc1ncnc2nc[nH]c12)c1cc2cccc(Cl)c2c(=O)n1-c1ccccc1 ? 102

May I ask what viability, T/C has been recorded for C#Cc1c(F)ccc2cc(O)cc(-c3ncc4c(N5CC6CCC(C5)N6)nc(OCC56CCCN5CC(F)C6)nc4c3F)c12 (stereo not given) + Cc1nc(NC(=O)N2CCCC2C(N)=O)sc1-c1ccnc(C(C)(C)C(F)(F)F)c1 ? 107
